Cited source: patent US20220281821A1

Target: BaF3-CD74-NTRK1 (Homo sapiens)
Construct: fused on or other part: P04233 (HLA class II histocompatibility antigen gamma chain)
Assay: Cell proliferation inhibition (CCK-8), BaF3-CD74-NTRK1 stable strain
Conditions: BaF3-CD74-NTRK1, 72 hours
measured.attribute: IC50 (nM)
Return type: number; implicit unit nM.

Recorded results for 6 compounds are shown here.
- compound.string: "O=S(=O)(Nc1ccc2[nH]nc(/C=C/c3cnn(CC(F)F)c3)c2c1)c1cc(F)cc(F)c1"
  IC50 [nM]: 23
- compound.string: "Fc1cncc(CNc2ccc3[nH]nc(/C=C/c4ccccn4)c3c2)c1"
  IC50 [nM]: 2.4
- compound.string: "Fc1cc(F)cc(Cc2ccc3[nH]nc(C#Cc4ccccn4)c3c2)c1"
  IC50 [nM]: 820
- compound.string: "CC(C)NC(=O)/C=C/c1n[nH]c2ccc(NCc3cc(F)cc(F)c3)cc12"
  IC50 [nM]: 619
- compound.string: "O=C(/C=C/c1n[nH]c2ccc(NCc3cc(F)cc(F)c3)cc12)N1CC[C@@H](O)C1"
  IC50 [nM]: 37.5
- compound.string: "COCCn1cc(/C=C/c2n[nH]c3ccc(NS(=O)(=O)c4cc(F)cc(F)c4)cc23)cn1"
  IC50 [nM]: 40.2

Kindly note the recorded IC50 for Fc1cc(F)cc(CCc2ccc3[nH]nc(/C=C/c4ccccn4)c3c2)c1 , which is 498

Kindly note the recorded IC50 for CN(c1cc(F)cc(F)c1)c1ccc2[nH]nc(C#Cc3ccccn3)c2c1 , which is 3810

Kindly note the recorded IC50 for CC(=O)n1cc(/C=C/c2n[nH]c3ccc(NS(=O)(=O)c4cc(F)cc(F)c4)cc23)cn1 , which is 107

Kindly note the recorded IC50 for O=S(=O)(Nc1ccc2[nH]nc(/C=C/c3cnn(C4CC4)c3)c2c1)c1cc(F)cc(F)c1 , which is 3.1

Kindly note the recorded IC50 for Fc1cccc(Cc2ccc3[nH]nc(C#Cc4ccccn4)c3c2)c1 , which is 2330

Kindly note the recorded IC50 for O=S(=O)(c1cc(F)cc(F)c1)c1ccc2[nH]nc(/C=C/c3ccccn3)c2c1 , which is 411

Kindly note the recorded IC50 for O=C(/C=C/c1n[nH]c2ccc(NCc3cc(F)cc(F)c3)cc12)N1CC[C@H](O)C1 , which is 11.9

Kindly note the recorded IC50 for Fc1cc(F)cc(Cc2ccc3[nH]nc(/C=C/c4ccccn4)c3c2)c1 , which is 146

Kindly note the recorded IC50 for CN(C)C(=O)/C=C/c1n[nH]c2ccc(NCc3cc(F)cc(F)c3)cc12 , which is 21.2

Kindly note the recorded IC50 for C[C@@H](Nc1ccc2[nH]nc(/C=C/c3cccnc3)c2c1)c1cc(F)cc(F)c1 , which is 6.4

====

Target: BaF3-CD74-NTRK1 (Homo sapiens, UniProt P04629)
Construct: fused on or other part: P04233 (HLA class II histocompatibility antigen gamma chain)
Sequence (P04629 510-796 limits assumed): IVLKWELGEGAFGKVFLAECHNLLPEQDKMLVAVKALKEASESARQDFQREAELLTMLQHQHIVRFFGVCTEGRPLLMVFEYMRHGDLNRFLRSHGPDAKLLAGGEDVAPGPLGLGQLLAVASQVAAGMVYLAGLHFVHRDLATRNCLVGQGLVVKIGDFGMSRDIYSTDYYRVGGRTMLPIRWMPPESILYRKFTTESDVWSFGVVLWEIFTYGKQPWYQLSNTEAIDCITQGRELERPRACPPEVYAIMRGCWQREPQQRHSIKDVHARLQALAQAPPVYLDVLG
Assay: Cell proliferation inhibition (CCK-8), BaF3-CD74-NTRK1 stable strain
Conditions: BaF3-CD74-NTRK1, 72 hours
measured.attribute: pIC50
pIC50 field: float, defined as -log10 of concentration (mol/L).

Recorded results for 7 compounds are shown here.
- compound: "C[C@@H](Nc1ccc2[nH]nc(/C=C/c3ccccc3)c2c1)c1cc(F)cc(F)c1 [DYX-412]"
  pIC50: 6.96
- compound: "O=S(=O)(c1cc(F)cc(F)c1)c1ccc2[nH]nc(/C=C/c3ccccc3)c2c1 [Example E01F07]"
  pIC50: 7.45
- compound: "O=S(=O)(c1cc(F)cc(F)c1)c1ccc2[nH]nc(/C=C/c3ccncc3)c2c1 [Example E01F02]"
  pIC50: 7.72
- compound: "C[C@@H](Nc1ccc2[nH]nc(/C=C/c3ccncc3)c2c1)c1cc(F)cc(F)c1 [DYX-410]"
  pIC50: 7.99
- compound: "FC(F)(F)c1cccc(Cc2ccc3[nH]nc(/C=C/c4ccccn4)c3c2)c1 [DYX-138X]"
  pIC50: 5.18
- compound: "O=S(=O)(Nc1ccc2[nH]nc(/C=C/c3ccccn3)c2c1)c1cncc(F)c1 [CHW-9]"
  pIC50: 7.22
- compound: "COc1ccc(F)cc1Cc1ccc2[nH]nc(/C=C/c3ccccn3)c2c1 [Example D09F01]"
  pIC50: 7.39

# lookup: Fc1cc(F)cc(NCc2ccc3[nH]nc(/C=C/c4ccccn4)c3c2)c1 [DYX-191] on BaF3-CD74-NTRK1 (Homo sapiens, UniProt P04629), pIC50 = 6.58
